// merged dataset of IC50 values, system = PIK3CA (human) (UniProt P42336), multiple refs

Study these solved cases before continuing.
Cc1cccc2cc(C(C)Nc3ncnc4[nH]cnc34)n(-c3ccccc3F)c(=O)c12 (stereo not shown)	> 10 µM
CC(C)(C#N)c1ccc(-c2nnc3cnc4ccc(-c5cnc(N)c(C(F)(F)F)c5)cc4n23)cc1	< 0.1 µM
Cc1ccn2nc(N)c(C(=O)N[C@@H](C)c3cc4cccc(Cl)c4c(=O)n3-c3ccccc3)c2n1	1 to 10 µM

Now turn to the next molecule.
Record Cc1ccccc1-n1c(Cn2nc(C#CC3CC3)c3c(N)ncnc32)cc2cccc(C)c2c1=O / PIK3CA (human) (UniProt P42336), IC50 recorded as > 10 µM

###

Please find below IC50 measurements for PIK3CA (human) (UniProt P42336), combined from several publications.

Known results for compounds:
C[C@H]1CN(c2cnc3ccc(-c4ccc5nc(N)sc5c4)cc3n2)CCN1	< 1000 nM
N#CCc1ccc(Nc2ncnc3ccc(-c4ccc5c(c4)OCCO5)cc23)cc1	342 nM
CC(C)(C#N)c1ccc(-n2cnc3cnc4ccc(-c5cnc(N)nc5)nc4c32)cn1	< 100 nM
COc1cc(-c2cccc3cc([C@H](C)NC(=O)c4c(N)nn5cccnc45)n(-c4ccccc4)c(=O)c23)ccn1	1000 to 10000 nM
Cc1c(-c2ccc3oc(N)nc3c2)ccc2ncc(N3CC(N4CCNCC4)C3)nc12	< 100 nM
CCNC(=O)c1cccc(-c2ccc3c(c2)CN(c2nc(C)nc4cc(OC)ccc24)CCO3)c1	≥ 2000 nM

Tested on PIK3CA (human) (UniProt P42336): Cc1cccc2cc(Cn3nc(-c4cc(O)cc(F)c4)c4c(N)ncnc43)n(-c3ccccc3)c(=O)c12 . Observed IC50: < 1000 nM

Reading of IC50 for Cn1nc(C2CCN(C(=O)CC(=O)O)CC2)nc1-c1cnc(N)c(-c2nnc(C(C)(C)C)o2)n1 with PIK3CA (human) (UniProt P42336): 24 nM

###

IC50 values for PIK3CA (human), compiled from several publications.

Answered cases to consult:
Cc1nc2cnc3ccc(-c4cnc(N)c(C(F)(F)F)c4)nc3c2n1C1CCN(S(C)(=O)=O)CC1	< 100 nM
c1cc(-c2nc3c(N4C[C@@H]5C[C@H]4CO5)nc(N4CCOCC4)nc3[nH]2)c2cc[nH]c2c1	4220 nM
Nc1ncc(-c2ccc3ncc4ncn(C5CCN(CC(=O)N6CCOCC6)CC5)c4c3n2)cc1C(F)(F)F	< 100 nM
Cn1cc(-c2nc(N3CCOCC3)c3nc(C(=O)N4CCC5(CC4)COC5)[nH]c3n2)cn1	> 1000 nM
C[C@H](NC(=O)c1nc(-c2cccc(NS(C)(=O)=O)c2)c(N)nc1N)c1cc2cccc(Cl)c2c(=O)n1-c1ccccc1	< 100 nM
Nc1ncc(-c2ccc3ncc4nnn(C5CCN(C(=O)CO)CC5)c4c3n2)cc1C(F)(F)F	< 100 nM
Cc1nc2ccc(-c3ccc4c(c3)CN(C(=O)N3CCC(O)(C(F)(F)F)CC3c3ccc(F)c(F)c3)CCO4)cc2[nH]1 (centres unmarked)	1000 to 3000 nM
CN1CCN(C(=O)c2cnc3ccc(-c4ccc5oc(N)nc5c4)cc3n2)CC1	< 10000 nM

Short answer on PIK3CA (human) for CC(=O)Nc1nc2ccc(-c3nn(Cc4cc5cccc(C)c5c(=O)n4-c4ccccc4C)c4ncnc(N)c34)cc2o1 , IC50: > 10000 nM

Fill in: PIK3CA (human) IC50 for CONC(=O)c1ccc(-c2ccnc3c2c(/C=C2\Oc4ccc(NC(=O)Nc5cccnc5)cc4C2=O)cn3C)cc1 = 976 nM

Entry Cc1ccccc1-n1c(Cn2nc(-c3ccc(O)c(F)c3)c3c(N)ncnc32)cc2cccc(C)c2c1=O , PIK3CA (human) data, IC50 value: > 10000 nM

GET /values?item= Cc1cccc2cc(Cn3nc(C(C)C)c4c(N)ncnc43)n(-c3ccccc3)c(=O)c12 &system= PIK3CA (human) returns IC50: > 10000 nM

Form: item FC(F)c1nc2ccccc2n1-c1cc(N[C@H]2CCC[C@@H](N3CCOCC3)C2)nc(N2CCOCC2)n1 ; test system PIK3CA (human); IC50: > 3000 nM

Summary line: COCCNC(=O)Nc1ccc(-c2cccc(Oc3cc(=O)[nH]c4ccccc34)c2)cc1 , PIK3CA (human), reported IC50 = > 10000 nM

Readout IC50 for C[C@H](Nc1ncnc2[nH]cnc12)c1cc2cccc(Cl)c2c(C(=O)N2CC(F)(F)C2)n1 , test system PIK3CA (human), was > 10000 nM

Assay PIK3CA (human), sample Nc1nc2cc(-c3ccc4ncc(N5CC(n6ccnc6)C5)nc4c3)ccc2o1 , IC50 read: < 100 nM

Tested on PIK3CA (human): COc1ncc(-c2ccc3ncn(CC(C)C(=O)NCC(F)(F)F)c(=O)c3c2)cc1NS(=O)(=O)c1ccc(F)cc1Cl (single isomer, unassigned) . Observed IC50: 11.2 nM

Measured IC50 for this entry C[C@H](Nc1ncnc2[nH]cc(F)c12)c1cc2cccc(C(F)(F)F)c2c(=O)n1-c1ccccc1 on PIK3CA (human): 1000 to 10000 nM
